experiment: Thermal stability / form transformation on heating or drying (XRPD); assay type: physicochemical
measurement.name: thermal stability (conversion to another form upon heating)

Field: example entries. Status: answers known.
CC(C)[C@H]1CC[C@H](C(=O)N[C@H](Cc2ccccc2)C(=O)O)CC1 [Form L, nateglinide] | thermally stable
CC(C)[C@H]1CC[C@H](C(=O)N[C@H](Cc2ccccc2)C(=O)O)CC1 [Form Y, nateglinide] | somewhat stable
CC(C)[C@H]1CC[C@H](C(=O)N[C@H](Cc2ccccc2)C(=O)O)CC1 [Form H, nateglinide] | thermally stable
CC(C)[C@H]1CC[C@H](C(=O)N[C@H](Cc2ccccc2)C(=O)O)CC1 [Form α, nateglinide] | somewhat stable
CC(C)[C@H]1CC[C@H](C(=O)N[C@H](Cc2ccccc2)C(=O)O)CC1 [Form O, nateglinide] | somewhat stable

Task item: Give me measured thermal stability (conversion to another form upon heating), please, for this molecule: CC(C)[C@H]1CC[C@H](C(=O)N[C@H](Cc2ccccc2)C(=O)O)CC1 [Form δ, nateglinide]
Reply: somewhat stable

Task item: Give me measured thermal stability (conversion to another form upon heating), please, for this molecule: CC(C)[C@H]1CC[C@H](C(=O)N[C@H](Cc2ccccc2)C(=O)O)CC1 [Form B, nateglinide]
Reply: thermally stable

Task item: Give me measured thermal stability (conversion to another form upon heating), please, for this molecule: CC(C)[C@H]1CC[C@H](C(=O)N[C@H](Cc2ccccc2)C(=O)O)CC1 [Form σ, nateglinide]
Reply: thermally stable

Task item: Give me measured thermal stability (conversion to another form upon heating), please, for this molecule: CC(C)[C@H]1CC[C@H](C(=O)N[C@H](Cc2ccccc2)C(=O)O)CC1 [Form U, nateglinide]
Reply: thermally stable

Every entry's value here was drawn from patent US20050075400A1.
